- System: Tyrosine-protein kinase ABL1 (Homo sapiens)
- Condition label: Compound concentration 20.0 uM, Protein concentration 2.0 uM, Result type QC Liability
- Description: Thermal Shift Assay. Domain: start/stop: S229-K512
// NB: equality with 0.2 °C counts as FALSE; only ΔTm strictly below is TRUE

Given O=C(CCSCc1ccco1)NNC(=O)N1Cc2ccccc2Oc2ccc(Cl)cc21 , is recorded ΔTm strictly lower than 0.2 °C?
FALSE

Given CC(=O)Nc1c(F)cc(C(=O)N[C@H]2CC[C@H](O)CC2)cc1O[C@@H](C)c1ccccc1 , is recorded ΔTm strictly lower than 0.2 °C?
FALSE

Given CC(=O)c1ccc2c(c1)/C(=C(/NC1CCN(C)CC1)c1ccc3c(c1)OCO3)C(=O)N2 , is recorded ΔTm strictly lower than 0.2 °C?
TRUE

Given COc1cc(-c2cc([C@H](O)C3CC3)n3ncnc(N)c23)ccc1CO , is recorded ΔTm strictly lower than 0.2 °C?
FALSE

Given COc1cc(Nc2cnc(C#N)c(O[C@H](C)CN(C)C)n2)ncc1-c1cnn(C)c1 , is recorded ΔTm strictly lower than 0.2 °C?
FALSE

Given CC1CCN(c2ccnc(NCc3cn(C)cn3)n2)CC1 , is recorded ΔTm strictly lower than 0.2 °C?
TRUE

Given CN(C)C(=O)Cn1cc(-c2ccc(-c3cncc4ccccc34)cc2)cn1 , is recorded ΔTm strictly lower than 0.2 °C?
FALSE

Given COc1cc(-c2cn(C)c(=O)c3cnccc23)cc(OC)c1CN(C)C , is recorded ΔTm strictly lower than 0.2 °C?
FALSE

Given COc1cc(C(=O)NC2CCN(C)CC2)ccc1Nc1ncc(C(F)(F)F)c(NCc2ccc(C)cc2N(C)S(C)(=O)=O)n1 , is recorded ΔTm strictly lower than 0.2 °C?
FALSE

Given CCOC(=O)c1ccc(CN(Cc2ccc(-c3cccc(S(C)(=O)=O)c3)cc2)S(=O)(=O)c2c(C)cc(C)cc2C)o1 , is recorded ΔTm strictly lower than 0.2 °C?
TRUE

Given CN[C@@H](C)C(=O)N[C@H](C(=O)N1CCC[C@H]1C(=O)Nc1sc(-c2ncco2)nc1-c1ccccc1)C1CCCCC1 , is recorded ΔTm strictly lower than 0.2 °C?
TRUE

Given CC(C)(C)OC(=O)CN(Cc1ccc(Cl)cc1)Cc1ccc([N+](=O)[O-])s1 , is recorded ΔTm strictly lower than 0.2 °C?
FALSE

Given CC(C)C[C@H](NC(=O)[C@@H](O)[C@H](N)Cc1ccccc1)C(=O)O , is recorded ΔTm strictly lower than 0.2 °C?
TRUE

Given Cc1nccn1-c1ccc(Sc2cccc(C3(C(N)=O)CCOCC3)c2)cc1 , is recorded ΔTm strictly lower than 0.2 °C?
TRUE

Given COc1cc(C)c(S(=O)(=O)N(C)CCOCC(=O)N(C)[C@H]2CCC[C@@H](N3CCN(C)CC3)C2)c(C)c1 , is recorded ΔTm strictly lower than 0.2 °C?
TRUE

Given COc1cc2ncnc(Nc3ccc(F)c(Cl)c3)c2cc1OCCN(C)C[C@H](C)O , is recorded ΔTm strictly lower than 0.2 °C?
FALSE

Given CC/C(=C(\c1ccccc1)c1ccc(OCCN(C)C)cc1)c1ccccc1 , is recorded ΔTm strictly lower than 0.2 °C?
TRUE

Given C[C@@H]1C[C@H](C)CN(c2ncc(Cl)c(Nc3ccc4c(c3)cc(OC(C)(C)C(=O)O)c(=O)n4C)n2)C1 , is recorded ΔTm strictly lower than 0.2 °C?
TRUE

Given COc1ccccc1[C@@H]1CNCCC12CCN(C(=O)[C@](OC)(c1ccccc1)C(F)(F)F)CC2 , is recorded ΔTm strictly lower than 0.2 °C?
FALSE

Given O=C(O)Cc1ccc(CCNS(=O)(=O)c2ccc(Cl)cc2)cc1 , is recorded ΔTm strictly lower than 0.2 °C?
FALSE

From: ChEMBL document CHEMBL5308504
